- assay-protocol: Cytotoxicity against mouse peritoneal macrophages after 48 hrs by trypan blue exclusion method
- Type: cell-based, Peritoneal macrophage cell
endpoint-label: CC50 at 48 h (µM)
Dear colleague, please return just the value in µM, with no unit written.

Recorded results for 5 compounds are shown here.
compound: N#Cc1c(NS(=O)(=O)c2ccc([N+](=O)[O-])cc2)[n+]([O-])c2cc(Cl)c(Cl)cc2[n+]1[O-]
reported-result: 89.1

compound: CC(=O)Oc1ccccc1C(=O)Nc1c(C#N)[n+]([O-])c2cc(C)c(C)cc2[n+]1[O-]
reported-result: 12.5

compound: C[C@@H]1[C@H](O)[C@@H](C)/C=C/C=C/C=C/C=C/C=C/C=C/C=C/[C@H](O[C@@H]2O[C@H](C)[C@@H](O)[C@H](N)[C@@H]2O)C[C@@H]2O[C@](O)(C[C@@H](O)C[C@@H](O)[C@H](O)CC[C@@H](O)C[C@@H](O)CC(=O)O[C@H]1C)C[C@H](O)[C@H]2C(=O)O
reported-result: 4.4

compound: N#Cc1c(NS(=O)(=O)c2ccccc2[N+](=O)[O-])[n+]([O-])c2ccc(Cl)cc2[n+]1[O-]
reported-result: 6.8

compound: CCN(CC)CCCC(C)Nc1ccnc2cc(Cl)ccc12 (configuration not stated)
reported-result: 88.6

Sample "N#Cc1c(NS(=O)(=O)c2ccc3ccccc3c2)[n+]([O-])c2ccc(Cl)cc2[n+]1[O-]" — what was its CC50 at 48 h? 88.6

* * *

- assay-protocol: Cytotoxicity against mouse peritoneal macrophages after 48 hrs by trypan blue exclusion method
- Assay type: cell-based, Peritoneal macrophage cell
Property: CC50 at 48 h; scope: individual compounds

Worked examples follow.
structure-smiles: N#Cc1c(NS(=O)(=O)c2ccc([N+](=O)[O-])cc2)[n+]([O-])c2ccc(Cl)cc2[n+]1[O-]
CC50 at 48 h: 7.9 µM

structure-smiles: CC(=O)Oc1ccccc1C(=O)Nc1c(C#N)[n+]([O-])c2cc(F)c(F)cc2[n+]1[O-]
CC50 at 48 h: 10.5 µM

structure-smiles: CC(=O)Oc1ccccc1C(=O)Nc1c(C#N)[n+]([O-])c2cc(F)ccc2[n+]1[O-]
CC50 at 48 h: 13.6 µM

Here is another compound to look at.
GET /values?readout=CC50 at 48 h&item= "CC(=O)Oc1ccccc1C(=O)Nc1c(C#N)[n+]([O-])c2cc(C)ccc2[n+]1[O-]" 21.7 µM

* * *

- Test system: Leishmania amazonensis
- assay-protocol: Ratio of amphotericin B IC50 to compound IC50 for axenic amastigotes of Leishmania amazonensis
- Format: functional
Ratio IC50 reference
Note: the reply should be a number with no unit written.

Worked cases, answers included:
structure-smiles: Cc1ccc2c(c1)[n+]([O-])c(C#N)c(NS(=O)(=O)c1ccc3ccccc3c1)[n+]2[O-]
Ratio IC50: 81.5

structure-smiles: N#Cc1c(NS(=O)(=O)c2ccccc2[N+](=O)[O-])[n+]([O-])c2ccc(Cl)cc2[n+]1[O-]
Ratio IC50: 15.5

structure-smiles: C[C@@H]1[C@H](O)[C@@H](C)/C=C/C=C/C=C/C=C/C=C/C=C/C=C/[C@H](O[C@@H]2O[C@H](C)[C@@H](O)[C@H](N)[C@@H]2O)C[C@@H]2O[C@](O)(C[C@@H](O)C[C@@H](O)[C@H](O)CC[C@@H](O)C[C@@H](O)CC(=O)O[C@H]1C)C[C@H](O)[C@H]2C(=O)O
Ratio IC50: 1

structure-smiles: COc1ccc2c(c1)[n+]([O-])c(C#N)c(NC(=O)c1ccccc1OC(C)=O)[n+]2[O-]
Ratio IC50: 212

structure-smiles: CC(=O)Oc1ccccc1C(=O)Nc1c(C#N)[n+]([O-])c2cc(C)c(C)cc2[n+]1[O-]
Ratio IC50: 88

structure-smiles: CC(=O)Oc1ccccc1C(=O)Nc1c(C#N)[n+]([O-])c2cc(F)ccc2[n+]1[O-]
Ratio IC50: 36.5

Could you tell me which Ratio IC50 is on file for "N#Cc1c(NS(=O)(=O)c2ccc([N+](=O)[O-])cc2)[n+]([O-])c2ccc(Cl)cc2[n+]1[O-]" ? 10.5

Recorded Ratio IC50 for "CC(=O)Oc1ccccc1C(=O)Nc1c(C#N)[n+]([O-])c2ccccc2[n+]1[O-]" , please? 559
